Reported values: IC50 for UniProt Q9GZT9, one per item.

- compound: "Cc1nn(-c2ccc(S(=N)(=O)C(C)C)cn2)c(O)c1-c1ccc(C#N)cc1 (centres unmarked) [Compound 19]"
  measured.target: "UniProt Q9GZT9"
  IC50: "< 100 nM"
- compound: "Cc1nn(-c2ccc(NS(=O)(=O)CC(=O)O)cn2)c(O)c1-c1ccc(C#N)cc1 [Compound 55]"
  measured.target: "UniProt Q9GZT9"
  IC50: "< 100 nM"

IC50 reading for Cc1nn(-c2ccc(NS(=O)(=O)N(C)C)cn2)c(O)c1-c1ccc(C#N)cc1 [Compound 52] : < 100 nM

Lookup result for Cc1cc(-n2nc(C)c(-c3ccc(C#N)cc3)c2O)ncc1NS(C)(=O)=O [Compound 39] ; measured IC50: < 100 nM

---

Measured IC50 (full-length human PHD2 (Homo sapiens))

As a guide, the following entries are already answered.
- compound: "CN=S(C)(=O)c1ccc(-n2nc(C)c(-c3ccc(C#N)cc3)c2O)nc1 (centres unmarked)"
  IC50: "< 100 nM"
- compound: "CNS(=N)(=O)c1ccc(-n2nc(C)c(-c3ccc(C#N)cc3)c2O)nc1 (centres unmarked)"
  IC50: "< 100 nM"
- compound: "Cc1nn(-c2ccc(C(=O)NS(C)(=O)=O)cn2)c(O)c1-c1ccc(C#N)cc1"
  IC50: "< 100 nM"
- compound: "Cc1nn(-c2ccc(-n3cc(-c4ccccc4)cn3)cn2)c(O)c1-c1ccc(C#N)cc1"
  IC50: "100 to 1000 nM"
- compound: "CCc1nn(-c2ccc(S(C)(=O)=O)cn2)c(O)c1-c1ccc(C#N)cc1"
  IC50: "< 100 nM"

Fill in: full-length human PHD2 (Homo sapiens) IC50 for Cc1nn(-c2ccc(S(=N)(=O)c3ccccc3)cn2)c(O)c1-c1ccc(C#N)cc1 (centres unmarked) = < 100 nM

Bench note, full-length human PHD2 (Homo sapiens): Cc1cc(-n2nc(C)c(-c3ccc(C#N)cc3)c2O)ncc1S(C)(=O)=O , IC50 reads < 100 nM

Reported IC50 (full-length human PHD2 (Homo sapiens)) for entry Cc1nn(-c2ccc(-c3nc(-c4ccccc4)cs3)cn2)c(O)c1-c1ccc(C#N)cc1 is > 10000 nM

---

Recorded below: pIC50, system full-length human PHD2 (Homo sapiens).
pIC50: −log10 of the molar value. Where a name gives a salt, the structure may show the parent alone.

- molecule: "Cc1nn(-c2ccc(S(C)(=O)=O)cn2)c(O)c1-c1ccc(C#N)cn1 [Compound 44]"
  pIC50: "6.00 to 7.00"

// field: pIC50; key: Cc1nn(-c2ccc(NC(=O)N3CCNCC3)cn2)c(O)c1-c1ccc(C#N)cc1 [Compound 32, hydrochloride] ; value = 6.00 to 7.00

The measured pIC50 associated with Cc1nn(-c2ccc([S@@](=N)(=O)C(C)C)cn2)c(O)c1-c1ccc(C#N)cc1 [Compound 41] reads > 7.00

Consider Cc1nn(-c2ccc([S@@](C)(=N)=O)cn2)c(O)c1-c1ccc(C#N)cc1 [Compound 16] . Its measured pIC50 is > 7.00

The reported value for Cc1nn(-c2ccc(S(C)(=O)=NC#N)cn2)c(O)c1-c1ccc(C#N)cc1 (centres unmarked) [Compound 58] in terms of pIC50 is > 7.00

---

# measured.target: full-length human PHD3 (Homo sapiens); also: 35 nM PHD3
# Sequence (Q9H6Z9 whole entry): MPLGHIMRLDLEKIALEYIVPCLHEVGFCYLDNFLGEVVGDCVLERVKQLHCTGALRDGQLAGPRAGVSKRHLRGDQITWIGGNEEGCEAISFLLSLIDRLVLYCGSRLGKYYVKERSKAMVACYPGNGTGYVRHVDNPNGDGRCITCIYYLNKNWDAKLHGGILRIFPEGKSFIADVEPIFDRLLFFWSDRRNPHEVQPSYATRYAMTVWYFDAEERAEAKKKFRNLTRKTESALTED
measure: IC50

Previously resolved entries follow.
- compound: "Cc1nn(-c2ccc(S(C)(=O)=O)cn2)c(O)c1-c1ccc(C#N)cc1"
  reported.measurement: "< 100 nM"
- compound: "Cc1cc(C#N)ccc1-c1c(C)nn(-c2ccc(S(C)(=O)=O)cn2)c1O"
  reported.measurement: "< 100 nM"
- compound: "Cc1nn(-c2ccc(C(=O)C(C)C)cn2)c(O)c1-c1ccc(C#N)cc1"
  reported.measurement: "100 to 1000 nM"

Lab note: measured IC50 of Cc1nn(-c2ccc(NS(=O)(=O)CC(=O)O)cn2)c(O)c1-c1ccc(C#N)cc1 was < 100 nM

# IC50 of Cc1nn(-c2ccc([S@@](=N)(=O)C3CC3)cn2)c(O)c1-c1ccc(C#N)cc1 = < 100 nM

Record Cc1nn(-c2ccc([S+](C)[O-])cn2)c(O)c1-c1ccc(C#N)cc1 (stereo not drawn) , field IC50: < 100 nM

Noted for Cc1nn(-c2ccc(C(=O)NS(C)(=O)=O)cn2)c(O)c1-c1ccc(C#N)cc1 : its IC50 reads < 100 nM

Value of IC50 reported for the compound Cc1nn(-c2ccc(S(=N)(=O)C3CCC3)cn2)c(O)c1-c1ccc(C#N)cc1 (stereo not drawn) is < 100 nM

Field IC50 (entry Cc1nn(-c2ccc(S(C)(=O)=O)cn2)c(O)c1-c1ccc(Cl)cc1 ) reads 100 to 1000 nM

---

# collection of IC50 values tested on full-length human PHD2 (Homo sapiens, UniProt Q9GZT9)
# Sequence (Q9GZT9 whole entry): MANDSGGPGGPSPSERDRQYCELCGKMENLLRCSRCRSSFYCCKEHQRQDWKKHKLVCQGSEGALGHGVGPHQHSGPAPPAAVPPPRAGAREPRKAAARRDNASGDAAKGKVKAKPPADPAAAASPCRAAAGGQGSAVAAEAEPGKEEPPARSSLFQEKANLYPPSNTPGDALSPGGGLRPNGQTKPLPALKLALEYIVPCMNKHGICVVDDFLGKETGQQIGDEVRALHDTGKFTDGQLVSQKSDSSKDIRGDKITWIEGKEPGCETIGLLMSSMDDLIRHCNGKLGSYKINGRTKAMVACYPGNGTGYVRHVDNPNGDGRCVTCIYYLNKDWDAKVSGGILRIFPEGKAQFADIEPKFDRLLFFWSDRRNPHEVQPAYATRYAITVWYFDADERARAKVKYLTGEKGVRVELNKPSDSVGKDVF

Cc1cc(-c2c(C)nn(-c3ccc(S(C)(=O)=O)cn3)c2O)ccc1O tested on full-length human PHD2 (Homo sapiens, UniProt Q9GZT9) gave IC50: 0.1 to 1 µM

Bench note, full-length human PHD2 (Homo sapiens, UniProt Q9GZT9): Cc1nn(-c2ccc(S(N)(=O)=O)cn2)c(O)c1-c1ccc(C#N)cc1 , IC50 reads < 0.1 µM

Here Cc1nn(-c2ccc([S@@+](C)[O-])cn2)c(O)c1-c1ccc(C#N)cc1 was tested on full-length human PHD2 (Homo sapiens, UniProt Q9GZT9), and its IC50 came to < 0.1 µM

full-length human PHD2 (Homo sapiens, UniProt Q9GZT9) data for COc1ccc(-c2c(C)nn(-c3ccc(S(C)(=O)=O)cn3)c2O)cc1C ; its IC50: 0.1 to 1 µM
